The reported measurements were obtained from ChEMBL document CHEMBL1201862.

Tested on: HOP-62
assay: NCI tumour cell line growth inhibition, 48 h
Activity calls are given as the source filed them. No stated cut-off is given here; in the data, active = GI50 up to about 1.1 µM and inactive = higher.
This listing pairs molecules with measured GI50.

Examples with their reported GI50 follow.
# molecule, result
data = [
    ("O=[N+]([O-])c1cccc(/N=C2\\c3ccccc3CN2c2cccc([N+](=O)[O-])c2)c1", "> 100 µM (inactive)"),
    ("COC(=O)C1=C(O)C(C(=O)OC)[C@]2(O)[C@H](C(=O)OC)[C@H]1C[C@@H](c1ccc(C(F)(F)F)cc1)[C@H]2C(=O)OC (some centres undefined)", "6.87 µM (inactive)"),
    ("C[N+]1(CCN[N+]2(C)CCCCC2)CCc2ccccc2C1 (centres undefined)", "> 100 µM (inactive)"),
    ("C=C(Br)CN(C(C)=O)C1CCCCC1", "> 100 µM (inactive)"),
    ("Cc1cn(C2CC(n3cc(Cn4ccc(=O)[nH]c4=O)nn3)C(CO)O2)c(=O)[nH]c1=O (centres undefined)", "> 100 µM (inactive)"),
    ("O=C(CSc1nc2ccc(I)cc2c(=O)n1Cc1ccccc1)NN1C(=O)CSC1c1ccccc1 (centres undefined)", "18.6 µM (inactive)"),
    ("c1ccc(CCN2CCN=C2Cc2ccccc2)cc1", "> 100 µM (inactive)"),
    ("C[C@@H]1C[C@H]2[C@@H]3CCC4=CC(=O)C=C[C@]4(C)[C@@]3(F)[C@@H](O)C[C@]2(C)[C@@]1(O)C(=O)CO", "> 100 µM (inactive)"),
]

# query: GI50 of entry Cc1ccc2c(c1)C(C1Cc3c(C)cccc3C1=O)OC2=O (centres undefined) > 100 µM (inactive)

====

Below, each entry is listed with its recorded GI50.
Test system: SK-OV-3
assay: NCI tumour cell line growth inhibition, 48 h
Calls of active or inactive are those of the source. No stated cut-off is given here; in the data, active = GI50 up to about 1.1 µM and inactive = higher.

# molecule, GI50
rows = [
    ("N#C/C(=C1\\SC(/N=N/c2ccc(Cl)cc2)C(=O)N1c1ccccc1)c1nc2ccccc2[nH]1 (centres undefined)", "15.5 µM (inactive)"),
    ("COc1cc(/C=C2\\N=C(c3ccccc3)N(c3nc4c(Cl)cc(Cl)cc4s3)C2=O)ccc1O", "55.7 µM (inactive)"),
]

Could you tell me which GI50 is on file for CC(=O)OCC1=CC2OC(=O)C3=COC(OC4OC(CO)C(O)C(O)C4O)C1C32 (centres undefined) ? > 100 µM (inactive)

# query: GI50 of entry S=C(Nc1c2c(nc3ccccc13)CCCC2)Nc1c2c(nc3ccccc13)CCCC2 > 100 µM (inactive)

Which GI50 is reported for this molecule? COc1cc2c(cc1O)CCN(C)[C@H]2Cc1ccc(Oc2c(O)c(OC)cc3c2C[C@H]2c4c(c(OC)c(OC)c(OC)c4-3)CCN2C)cc1 5.42 µM (inactive)

Could you tell me which GI50 is on file for CN(CCCn1ccnc1[N+](=O)[O-])CCCn1ccnc1[N+](=O)[O-] ? > 100 µM (inactive)

If you can, please state the reported GI50 value of CS(=O)(=O)NC12CCC(c3ccccc31)c1ccccc12 . > 100 µM (inactive)

// query GI50 value for entry COc1ccc(/C=C2\Cc3ccccc3C2=O)cc1OC > 100 µM (inactive)

For the molecule shown here, COc1ccc(N2C(=O)/C(=C\c3cc(OC)c(OC)c(OC)c3)SC2c2ccccc2)cc1 (centres undefined) , give the reported GI50. 81.7 µM (inactive)

====

Item-by-item account of GI50
System: HOP-18
assay: NCI tumour cell line growth inhibition, 48 h
The source made the active and inactive calls. No stated cut-off is given here; in the data, active = GI50 up to about 1.1 µM and inactive = higher.

# compound, reported_endpoint, result
records = [
    ("CN(C)c1ccc(/C=c2\\sc3nnc(-c4cccnc4)n3c2=O)cc1", "GI50", "> 100 µM (inactive)"),
    ("CCCCCCNC(=O)C(C)C1CCC2(C)C=CC(=O)C(C)=C2C1O (stereo not drawn)", "GI50", "> 100 µM (inactive)"),
    ("C=C1C(=O)O[C@H]2C[C@@H](C)[C@@H]3CC(=O)OC[C@@]3(C)CC12 (stereo partly drawn)", "GI50", "36.5 µM (inactive)"),
    ("Nc1nc(Cl)cc(NCCCNc2cc(Cl)nc(N)n2)n1", "GI50", "> 100 µM (inactive)"),
    ("O=S(=O)(O)c1ccc(/N=N/c2nc(C(F)(F)F)c(C(F)(F)F)[nH]2)cc1", "GI50", "25.5 µM (inactive)"),
    ("COc1ccc(N2C(=O)C3c4[nH]c5ccccc5c4C4CCCCCCCCCCC4C3C2=O)cc1 (stereo not drawn)", "GI50", "3.03 µM (inactive)"),
]

# lookup: GI50 of OC12CC/C(=N/OCc3ccccc3)CC1c1ccccc12 (stereo not drawn) > 100 µM (inactive)

Returns the measured GI50 for the input compound. Input: C#CCCCCC#Cc1ccccc1C(=O)OC > 100 µM (inactive)

====

Recorded GI50 by entry
Test system: TK-10
assay: NCI tumour cell line growth inhibition, 48 h
Activity calls are given as the source filed them. Cut-off read from the data, not from the text of the source: active = GI50 up to about 1.1 µM and inactive = higher.

Endpoint output: GI50 of Cc1ccc2[nH]c3c(C)c4c(c(C)c3c2c1)CN(C)C=C4 . Value? 9.29 µM (inactive)

====

System: NCI/ADR-RES
assay: NCI tumour cell line growth inhibition, 48 h
The source made the active and inactive calls. No stated cut-off is given here; in the data, active = GI50 up to about 1.1 µM and inactive = higher.
Each entry below carries its reported GI50.

Solved entries (count: 3):
# compound, GI50
measured = [
    ("CC(=O)SC(C[N+](=O)[O-])c1ccc2c(c1)OCO2 (stereo unspecified)", "11.6 µM (inactive)"),
    ("COC1CC(n2ccc(=O)[nH]c2=O)OC1CO (stereo unspecified)", "> 100 µM (inactive)"),
    ("CC(C)C(O)(C(C)C)C(C)C", "> 100 µM (inactive)"),
]

What value of GI50 has been reported for the following compound? FC(F)(F)c1cnc(N/N=C(/c2ccccc2)c2ccccn2)c(Cl)c1 2.78 µM (inactive)

Recorded GI50 of NC(=O)C(=CNC(=S)Nc1ccccc1)C(N)=O , please. > 100 µM (inactive)

Tell me the measured GI50 of O=[N+]([O-])C1(CO)COC2(OC1)c1ccccc1-c1ccccc12 , please. > 48.3 µM (inactive)

====

System: A498
assay: NCI tumour cell line growth inhibition, 48 h
Activity calls are given as the source filed them. No stated cut-off is given here; in the data, active = GI50 up to about 1.1 µM and inactive = higher.
GI50 values for the molecules below.

Worked examples, 8 molecules total:
# molecule, result
data = [
    ("CC(C)(Br)C(=O)N1CCN(C(c2ccccc2)c2ccccc2)CC1", "> 100 µM (inactive)"),
    ("c1ccc2[nH]c(CNc3ccc(C4C[Se]N=N4)cc3)nc2c1 (stereo not given)", "> 100 µM (inactive)"),
    ("C[C@]12CC(c3ccccc3O1)C(C(=O)Nc1nc(C34CC5CC(CC(C5)C3)C4)cs1)C(=O)N2 (stereo not given in full)", "> 100 µM (inactive)"),
    ("CCCCCCCC(=O)OC(CBr)COC(=O)C(C)(C)C (stereo not given)", "> 100 µM (inactive)"),
    ("O=C(NCc1ccccc1)c1c(O)nc2ccccc2c1O", "> 100 µM (inactive)"),
    ("CC1CC(c2ccc([N+](=O)[O-])cc2)=Nc2ccccc2[S+]1[O-] (stereo not given)", "18.2 µM (inactive)"),
    ("Cn1c(=O)c(C(=O)Nc2nc(C34CC5CC(CC(C5)C3)C4)cs2)c(O)c2ccccc21", "58.9 µM (inactive)"),
    ("Clc1ccc(OCc2nnc(COc3ccc(OCc4nnc(COc5ccc(Cl)cc5Cl)o4)c(Cl)c3)o2)c(Cl)c1", "48.3 µM (inactive)"),
]

Entry O=C1CC(c2cccc(Cl)c2)Oc2ccccc21 (stereo not given) : reported GI50 = ? 24.7 µM (inactive)

Value lookup for GI50; key = COc1ccc(N2C(=O)C3c4[nH]c5ccccc5c4C4CCCCCCCCCCC4C3C2=O)cc1 (stereo not given) 9.4 µM (inactive)

====

Test system: M14
assay: NCI tumour cell line growth inhibition, 48 h
Calls of active or inactive are those of the source. Rule as the data show it: active = GI50 up to about 1.1 µM and inactive = higher.
Below, each entry is listed alongside its reported GI50.

In the examples that follow, each entry is paired with its recorded GI50.
# molecule, reported_endpoint, result
measured = [
    ("C[C@]12CC(c3ccccc3O1)C(C(=O)Nc1nc(C34CC5CC(CC(C5)C3)C4)cs1)C(=O)N2 (some centres not stated)", "GI50", "> 100 µM (inactive)"),
    ("O=C1C=C2CO[C@H]3OC[C@H](O)[C@@H]1[C@@H]23", "GI50", "> 100 µM (inactive)"),
    ("COC(=O)CCc1ccc2c(c1)CC1(Cc3ccccc3C1)C2", "GI50", "> 100 µM (inactive)"),
    ("COc1ccc(-c2cc(O)c3cc4c(cc3n2)OCO4)cc1", "GI50", "> 100 µM (inactive)"),
    ("COC(OC)c1cc2c(cc1C(=O)[C@@]13CCC[C@@H]1NC(=O)O3)OCO2", "GI50", "> 100 µM (inactive)"),
]

Would you kindly look at the next entry?
Quick check: GI50 of COc1cc2c(cc1C1=NC(C)(C)CO1)OCO2 ? > 100 µM (inactive)
